Below: a set of entries, each annotated with reported IC50.
target: intracellular domain of human Tie2 (GST fusion protein) (Homo sapiens); construct: intracellular domain of human Tie2 (amino acids 776-1124); test: Tie2 kinase assay (Tie2-TR-FRET); conditions: ATP concentration 1 mM, in some cases means of several independent determinations
Sequence (Q02763 776-1124): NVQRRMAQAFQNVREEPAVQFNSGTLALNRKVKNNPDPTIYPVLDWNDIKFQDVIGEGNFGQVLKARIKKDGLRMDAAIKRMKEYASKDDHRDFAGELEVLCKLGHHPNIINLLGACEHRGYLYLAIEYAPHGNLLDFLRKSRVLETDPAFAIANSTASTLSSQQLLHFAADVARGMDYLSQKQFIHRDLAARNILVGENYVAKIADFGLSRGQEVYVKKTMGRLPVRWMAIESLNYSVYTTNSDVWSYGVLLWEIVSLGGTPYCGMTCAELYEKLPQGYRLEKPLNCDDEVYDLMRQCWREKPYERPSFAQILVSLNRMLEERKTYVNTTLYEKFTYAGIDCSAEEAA
Expressed in nM, but write only the number.

Quick note, IC50 for Cc1cc(NC(=O)c2cc(C#N)cc(S(F)(F)(F)(F)F)c2)cc(-n2ccn3nc(-c4cccnc4)cc23)c1C [Example 102] landed at 19

Entry Cc1ccc(NC(=O)c2cccc(S(F)(F)(F)(F)F)c2)cc1-n1ccn2nc(-c3cccnc3)c(F)c12 [Example 158] , IC50 reported as 58

---
// COC1CN(c2cc(C(=O)Nc3cc(-n4ccn5nc(-c6cccnc6)cc45)c(C)cc3C)cc(S(F)(F)(F)(F)F)c2)C1 [Example 146] : IC50 value = 0.7

The compound listed as Cc1cc(C)cc(C(=O)Nc2ccc(C)c(-n3ccn4nc(-c5cccnc5)cc34)c2)c1 [Example 52] shows IC50 equal to 230

Cc1c(Cl)cc(NC(=O)c2cccc(S(F)(F)(F)(F)F)c2)cc1-n1ccn2nc(-c3cccnc3)cc12 [Example 106] yielded IC50 of 110

Noted for Cc1ccc(NC(=O)c2cc(C#N)cc(OC(F)(F)F)c2)cc1-n1ccn2nc(-c3cccnc3)cc12 [Example 38] : its IC50 reads 15

Memo: COCCOCc1cc(C(=O)Nc2cc(-n3ccn4nc(-c5cccnc5)cc34)c(C)cc2C)cc(S(F)(F)(F)(F)F)c1 [Example 155] , reported IC50: 0.7

Cc1ccc(-n2ccn3nc(-c4cccnc4)cc23)cc1NC(=O)c1cc(Br)cc(C(C)(C)C)c1 [Example 78] has a reported IC50 of 115
